molecular target: JAK1 (Homo sapiens (Human)); assay: LanthaScreen JAK biochemical assay (JAK1); conditions: JAK1 enzyme assay
Sequence (P23458 whole entry): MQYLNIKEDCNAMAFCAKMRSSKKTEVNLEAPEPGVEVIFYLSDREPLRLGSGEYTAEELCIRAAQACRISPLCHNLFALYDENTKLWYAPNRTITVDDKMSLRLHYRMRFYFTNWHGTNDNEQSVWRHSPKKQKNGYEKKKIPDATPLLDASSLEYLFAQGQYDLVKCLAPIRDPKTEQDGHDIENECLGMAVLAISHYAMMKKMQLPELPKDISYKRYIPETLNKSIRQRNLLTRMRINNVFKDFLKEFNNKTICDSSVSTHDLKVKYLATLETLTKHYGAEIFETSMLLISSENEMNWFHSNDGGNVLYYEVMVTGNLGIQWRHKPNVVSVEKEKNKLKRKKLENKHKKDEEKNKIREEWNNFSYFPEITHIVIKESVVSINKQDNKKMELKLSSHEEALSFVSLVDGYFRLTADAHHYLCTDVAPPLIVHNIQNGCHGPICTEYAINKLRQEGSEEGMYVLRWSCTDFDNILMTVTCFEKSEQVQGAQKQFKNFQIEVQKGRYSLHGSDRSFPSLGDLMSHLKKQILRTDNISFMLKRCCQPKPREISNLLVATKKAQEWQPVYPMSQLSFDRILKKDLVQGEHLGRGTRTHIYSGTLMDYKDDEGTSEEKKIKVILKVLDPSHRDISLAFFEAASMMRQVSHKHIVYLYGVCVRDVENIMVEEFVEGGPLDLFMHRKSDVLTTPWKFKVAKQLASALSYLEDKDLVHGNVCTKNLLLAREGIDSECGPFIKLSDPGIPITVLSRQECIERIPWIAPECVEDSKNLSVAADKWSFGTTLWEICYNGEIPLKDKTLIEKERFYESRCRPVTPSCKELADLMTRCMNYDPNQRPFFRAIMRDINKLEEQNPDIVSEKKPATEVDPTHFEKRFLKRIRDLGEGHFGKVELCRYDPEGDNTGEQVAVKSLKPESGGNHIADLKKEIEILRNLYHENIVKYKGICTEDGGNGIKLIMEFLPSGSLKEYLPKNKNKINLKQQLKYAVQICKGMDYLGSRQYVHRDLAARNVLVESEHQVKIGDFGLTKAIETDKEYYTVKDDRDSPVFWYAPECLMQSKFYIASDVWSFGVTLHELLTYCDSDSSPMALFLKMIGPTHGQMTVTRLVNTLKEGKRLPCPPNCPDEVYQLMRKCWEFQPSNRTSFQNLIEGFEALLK
fold less potent than the corresponding compound of the invention in the enzyme assay for assorted molecules
measured.metric: fold less potent than the corresponding compound of the invention in the enzyme assay (fold)

CCc1cc(O)c(F)cc1-c1ccc2c(-c3nc4c([nH]3)CCN(C3CC(C)C3)C4)n[nH]c2c1 (stereo not shown) [Example C-1, reference compound] = 2
CCc1cc(O)c(F)cc1-c1ccc2c(-c3nc4c([nH]3)CCN(CCC(C)C)C4)n[nH]c2c1 [Example C-2, reference compound] = 3
CCc1cc(O)c(F)cc1-c1ccc2c(-c3nc4c([nH]3)CCN(CC3CCCOC3)C4)n[nH]c2c1 (stereo not shown) [Example C-3, reference compound] = 6
CCc1cc(O)c(F)cc1-c1ccc2c(-c3nc4c([nH]3)CCN(C3CCC(C)CC3)C4)n[nH]c2c1 (stereo not shown) [Example C-4, reference compound] = 2.5
